Numbers sourced from patent US20020055463A1.

pKd: −log10 of the molar value.
This section lists pKd readings for Grb2 (Homo sapiens).
quantity-kind: pKd

molecule	quantity-kind	reported-value
C[C@@](Cc1ccc(C(=O)O)cc1)(NC(=O)[C@H](Cc1ccc(OP(=O)(O)O)cc1)NC(=O)OCc1cccc(N)c1)C(=O)N[C@@H](CC(N)=O)C(N)=O	pKd	7.35
CC(Cc1ccc(CP(=O)(O)O)cc1)(NC(=O)[C@H](Cc1ccc(OP(=O)(O)O)cc1)NC(=O)OCc1cccc(N)c1)C(=O)N[C@@H](CC(N)=O)C(N)=O (stereo partly drawn)	pKd	7.15
NC(=O)C[C@H](NC(=O)C1(NC(=O)[C@H](Cc2ccc(OP(=O)(O)O)cc2)NC(=O)OCc2cccc(N)c2)CCCCC1)C(N)=O [mAZ-pTyr-Acac-Asn-NH2, reference compound]	pKd	7.52
C[C@@](Cc1ccc(OP(=O)(O)O)cc1)(NC(=O)[C@H](Cc1ccc(OP(=O)(O)O)cc1)NC(=O)OCc1cccc(N)c1)C(=O)N[C@@H](CC(N)=O)C(N)=O	pKd	8.52
CC(Cc1ccc(P(=O)(O)O)cc1)(NC(=O)[C@H](Cc1ccc(OP(=O)(O)O)cc1)NC(=O)OCc1cccc(N)c1)C(=O)N[C@@H](CC(N)=O)C(N)=O (stereo partly drawn)	pKd	8.35
C[C@@](Cc1ccc(O)cc1)(NC(=O)[C@H](Cc1ccc(OP(=O)(O)O)cc1)NC(=O)OCc1cccc(N)c1)C(=O)N[C@@H](CC(N)=O)C(N)=O [mAZ-pTyr-(αMe)Tyr-Asn-NH2, mAZ-pTyr-(α-Me)Tyr-Asn-NH2, reference compound]	pKd	6.60
NC(=O)C[C@H](NC(=O)[C@H](Cc1ccc(OP(=O)(O)O)cc1)NC(=O)[C@H](Cc1ccc(OP(=O)(O)O)cc1)NC(=O)OCc1cccc(N)c1)C(N)=O [mAZ-pTyr-pTyr-Asn-NH2, reference compound]	pKd	7.22
NC(=O)C[C@H](NC(=O)[C@H](Cc1ccc(O)cc1)NC(=O)[C@H](Cc1ccc(OP(=O)(O)O)cc1)NC(=O)OCc1cccc(N)c1)C(N)=O [mAZ-pTyr-Tyr-Asn-NH2, reference compound]	pKd	6.81
C[C@@](Cc1ccc(CC(=O)O)cc1)(NC(=O)[C@H](Cc1ccc(OP(=O)(O)O)cc1)NC(=O)OCc1cccc(N)c1)C(=O)N[C@@H](CC(N)=O)C(N)=O	pKd	7.22
